B1: Twister Ribozyme (parent)
chain: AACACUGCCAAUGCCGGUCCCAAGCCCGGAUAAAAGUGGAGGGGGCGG

Variants of: B1
experiment-notes: self-cleavage, relative activity (ratio to wild type); higher = more cleavage; co-transcriptional
measurement-name: self-cleavage

- C15A C21G: 0.0777
- A34G: 0.874
- U12A A33C: 1.04
- U12A G24A: 0.103
- A1U C5A: 0.0587
- A32U G42U: 0.298
- U6G G48A: 0.24
- C19G G48A: 0.167
- G7A G17A: 0.083
- A11G G41A: 0.505
- A2U G24U: 0.0983
- A4U G7A: 0.1
- A1C G38A: 0.189
- C3A G28C: 0.179
- U6C G29U: 0.371
- U12C G44U: 0.902
- C20G U31A: 0.103
- C20G A40U: 0.0992
- U6A G13C: 0.072
- A40C G48U: 0.284
- C8U U12C: 0.753
- C15U G16C: 0.464
